assay-summary: label from the status in PepcDB records

sequence-record	protein production
MSSRTVLAPGNDRNSDTHGTLGSGRSSDKGPSWSSRSLGARCRNSIASCPEEQPHVGNYRLLRTIGKGNFAKVKLARHILTGREVAIKIIDKTQLNPSSLQKLFREVRIMKGLNHPNIVKLFEVIETEKTLYLVMEYASAGEVFDYLVSHGRMKEKEARAKFRQIVSAVHYCHQKNIVHRDLKAENLLLDAEANIKIADFGFSNEFTLGSKLDTFCGSPPYAAPELFQGKKYDGPEVDIWSLGVILYTLVSGSLPFDGHNLKELRERVLRGKYRVPFYMSTDCESILRRFLVLNPAKRCTLEQIMKDKWINIGYEGEELKPYTEPEEDFGDTKRIEVMVGMGYTREEIKESLTSQKYNEVTATYLLLGRKTEEGGDRGAPGLALARVRAP	failed
MANKEKLPWDLEEEILSRVPPTSLDRFKTVCKRWNALFNDKTFINNHKMTFQFVLSTRSKIYSVSVNPKVEVRELTLNNPGLKAQRHKNLFATSGLLLCDVGNGAVVWNPWLKQSRCIKLEVNEPSLDFLGIGYDNNKRVEEIVYKTLSVYMKDLGSQYTWKIHDFASDTWIDQEIEKTKYSRRITEGSVTIRLTNLSVVSLNGKFFKFCDLPSGKNRRRDALALRVFREDRFSLLRQCHVTKKIKIWVTKNKIDNRYGGDVKWMSFMEVSIPTMPDLEHPKFNSQPSYFIDDKRLVICSCDETGRAWIYVVGGNKLVSKTQLDSVVDPWPLHCTYFPSLVLVPGGQREEAELQEAKNLHVTTELYVPGKTKSSIKLHYG	failed
MKLALFDLDHTLLNTDSDHSWGEFLVNEGLVDPVHHRQMNDKFYEDYKAGQLDPIAYNEFVFEFLTQNTPEVLTDLHALFMQKVIRPQMRPKGFDGIKKHQNLGHDIVGITATSDFITAPIFRAFGITEIIATNAEVQDGKYTGKVAGLPCYQKGKLARLDQWLAGRSVEESWAYSDSINDRFLLEYATHAIAVNPDDRLEKLAIDQGWTIEDWSI	failed
